Where these numbers come from: patent US20050020576A1

biological target: cloned human kappa receptor (Homo sapiens, UniProt P41145); assay: biochemical; type: binding; details: Ki (nM) [3H]-Diprenorphin κ
Sequence (P41145 whole entry): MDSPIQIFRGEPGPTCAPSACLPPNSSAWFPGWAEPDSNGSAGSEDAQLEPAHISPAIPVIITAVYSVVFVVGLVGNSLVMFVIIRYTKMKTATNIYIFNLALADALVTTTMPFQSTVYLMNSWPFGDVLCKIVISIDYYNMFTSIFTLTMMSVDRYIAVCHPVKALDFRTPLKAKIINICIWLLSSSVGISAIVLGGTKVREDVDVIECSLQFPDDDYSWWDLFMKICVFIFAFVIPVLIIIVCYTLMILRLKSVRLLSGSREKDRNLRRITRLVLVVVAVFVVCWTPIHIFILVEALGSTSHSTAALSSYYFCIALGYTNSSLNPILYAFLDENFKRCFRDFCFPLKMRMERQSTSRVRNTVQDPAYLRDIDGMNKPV
Where a name gives a salt, the structure may show the parent alone.
Value type: log10 of Ki (log10 of the value in nM)

INSERT INTO measurements (compound, value_type, recorded_number) VALUES
  ('CN(C(=O)Cc1ccccc1NS(C)(=O)=O)[C@H](CN1CC[C@H](O)C1)c1ccccc1 [Example 125]', 'log10 of Ki', 0.72),
  ('CNS(=O)(=O)c1cccc(CC(=O)N(C)[C@H](CN2CCCC2)c2ccccc2)c1OC [Example 3u]', 'log10 of Ki', 0.00),
  ('CNS(=O)(=O)c1ccccc1CC(=O)N(C)C(CN1CCCC1)c1ccccc1F (racemic) [Example 147]', 'log10 of Ki', 1.00),
  ('CN(C(=O)Cc1ccc(Cl)c(Cl)c1)[C@H](CN1CCCC1)c1cccc(NS(N)(=O)=O)c1 (racemic) [Example 3c, hydrochloride]', 'log10 of Ki', -0.92),
  ('CN(C(=O)Cc1ccccc1NS(C)(=O)=O)[C@H](CN1CCCC1)c1cccc(NS(C)(=O)=O)c1 [Example 3pp, Hydrochloride]', 'log10 of Ki', 0.66),
  ('CC(C)C(=O)Nc1cccc([C@@H](CN2CCCC2)N(C)C(=O)Cc2ccccc2NC(=O)C(C)C)c1 [Example 3qq]', 'log10 of Ki', 1.32),
  ('COc1cc(CC(=O)N(C)[C@H](CN2CCCC2)c2ccccc2)c(S(=O)(=O)N(C)Cc2ccccc2)cc1OC [Example 148]', 'log10 of Ki', -0.08);

* * *

The following compounds are shown together with reported melting point values.
Structures can show the parent of a compound that is named as a salt.
Value type: melting point

INSERT INTO measurements (compound, result) VALUES
  ('CN(C(=O)Cc1ccc(S(C)(=O)=O)cc1)[C@@H]1CCCC[C@H]1N1CCCC1.Cl (racemic)', '152 to 154 °C (dec.)'),
  ('CS(=O)(=O)O[C@H]1CCN(CC2CN(S(C)(=O)=O)CCN2C(=O)Cc2ccc(Cl)c(Cl)c2)C1 (stereo partly drawn) (as salt: hydrochloride)', '130 to 132 °C'),
  ('COC(=O)N1CCN(C(=O)Cc2ccccc2OC)C(CN2CCCC2)C1 (racemic) (as salt: hydrochloride) [(R,S-9e)]', '120 °C'),
  ('COC(=O)CNC(=O)c1ccccc1CC(=O)N(C)[C@H](CN1CCCC1)c1ccccc1 (as salt: hydrochloride)', '204 to 206 °C'),
  ('COc1cc(CC(=O)N(C)[C@H](CN2CCCC2)c2ccccc2)c(S(=O)(=O)N(C)Cc2ccccc2)cc1OC (as salt: hydrochloride) [Example 3xx]', '188 to 190 °C'),
  ('O=C(Cc1ccc(Cl)c(Cl)c1)N1CCN(C(=O)C(F)(F)F)C[C@H]1CN1CCCC1 (as salt: hydrochloride) [(R-3h)]', '145 to 147 °C');

* * *

molecular target: cloned human kappa receptor (Homo sapiens, UniProt P41145); assay: biochemical; type: binding; conditions: Table IIIB; read-out: Ki(nM) [3H]-Diprenorphin κ
Value type: Ki (nM)

INSERT INTO results (compound, value_type, unit_info, recorded_number) VALUES
  ('COc1ccc(C(CN2CCCC2)N(C)C(=O)Cc2ccccc2NS(C)(=O)=O)cc1 (racemic)', 'Ki', 'nM', 110);

* * *

system: formalin-induced flinching; test: animal or person; type: in vivo, male Sprague-Dawley rats; conditions: rat, in vivo
// reported Late Phase Formalin (i. paw), % @ 300 per item
Value type: Late Phase Formalin (i. paw), % @ 300

INSERT INTO results (molecule, result) VALUES
  ('CN(C(=O)Cc1ccc(OCc2ccccc2)c(NS(C)(=O)=O)c1)[C@H](CN1CCCC1)c1ccccc1 [Example 123]', '87% @ 300'),
  ('COc1cc(CC(=O)N(C)[C@H](CN2CCCC2)c2ccccc2)c(S(=O)(=O)N2CCN(C)CC2)cc1OC [Example 138]', '80% @ 300'),
  ('CN(C(=O)Cc1ccc(O)c(N(S(C)(=O)=O)S(C)(=O)=O)c1)[C@H](CN1CCCC1)c1ccccc1 [Example 130]', '46% @ 300'),
  ('CN(C(=O)Cc1ccccc1NS(C)(=O)=O)C(CN1CCCC1)c1ccc(O)cc1 (racemic) [Example 129A]', '46% @ 300'),
  ('COc1cc(CC(=O)N(C)[C@H](CN2CCCC2)c2ccccc2)c(S(=O)(=O)N(C)C)cc1OC [Example 136]', '97% @ 300'),
  ('COc1ccc(CC(=O)N(C)[C@H](CN2CC[C@H](O)C2)c2ccccc2)cc1NS(C)(=O)=O [Example 127]', '94% @ 300'),
  ('CN(C(=O)Cc1cc2c(cc1S(=O)(=O)N(C)C)OCO2)[C@H](CN1CCCC1)c1ccccc1 [Example 132]', '100% @ 300');

* * *

biological target: cloned human kappa receptor (Homo sapiens, UniProt P41145); experiment: biochemical; type: binding; details: Table IA; read-out: Ki(nM) (3H)-Diprenorphin
Structures can show the parent of a compound that is named as a salt.
Criterion: Ki strictly under 200 nM. Met: Criterion met. Not met: Criterion not met.

INSERT INTO results (compound, assigned_category) VALUES
  ('CC(=O)N1CCN(C(=O)Cc2ccc(Cl)c(Cl)c2)C(CN2CCC[C@H]2CO)C1 (mixture of isomers) [Example 1z, hydrochloride]', 'Criterion met'),
  ('COC(=O)N1CCN(C(=O)Cc2ccc(S(C)(=O)=O)cc2)C(CN2CCC[C@H]2CO)C1 (mixture of isomers) [Example 1o, hydrochloride]', 'Criterion met'),
  ('CC(=O)N1CCN(C(=O)Cc2ccc(Cl)c(Cl)c2)C(CN2CC[C@H](OC(=O)Cc3ccc(Cl)c(Cl)c3)C2)C1 (mixture of isomers) [Example 1w, hydrochloride]', 'Criterion not met'),
  ('CC(=O)N1CCN(C(=O)Cc2ccc(S(C)(=O)=O)cc2)C(CN2CC[C@H](OC(=O)Cc3ccc(S(C)(=O)=O)cc3)C2)C1 (mixture of isomers) [Example 1u, hydrochloride]', 'Criterion not met'),
  ('COC(=O)N1CCN(C(=O)Cc2ccc(C(F)(F)F)cc2NCC(=O)O)C(CN2CCCC2)C1 (racemic)', 'Criterion not met');

* * *

Property: Ki; scope: individual compounds
target: cloned human kappa receptor (Homo sapiens, UniProt P41145); experiment: biochemical; format: binding; conditions: Ki, nM 3H-Diprenorphin
Structures can show the parent of a compound that is named as a salt.
Value type: Ki (nM)

INSERT INTO results (compound, target_entity, recorded_number) VALUES
  ('COC(=O)N1CCN(C(=O)Cc2ccc(C(F)(F)F)cc2)C(CN2CC[C@H](OC(=O)Cc3ccc(C(F)(F)F)cc3)C2)C1 (mixture of isomers) [Example 1j, hydrochloride]', 'cloned human kappa receptor (Homo sapiens, UniProt P41145)', 13),
  ('COC(=O)N1CCN(C(=O)Cc2ccc(Cl)c(Cl)c2)C(CN2CCCC2CO)C1 (stereo not drawn) [Example 1l, hydrochloride]', 'cloned human kappa receptor (Homo sapiens, UniProt P41145)', 3.5),
  ('CS(=O)(=O)N1CCN(C(=O)Cc2ccc(Cl)c(Cl)c2)C(CN2CC[C@H](O)C2)C1 (mixture of isomers) [Example 1ll, hydrochloride]', 'cloned human kappa receptor (Homo sapiens, UniProt P41145)', 2.86),
  ('COC(=O)N1CCN(C(=O)Cc2ccc(Cl)c(Cl)c2)C(CN2CCC[C@H]2COC(=O)Cc2ccc(Cl)c(Cl)c2)C1 (mixture of isomers) [Example 1k, hydrochloride]', 'cloned human kappa receptor (Homo sapiens, UniProt P41145)', 51.5),
  ('COC(=O)N1CCN(C(=O)Cc2ccc(Cl)c(Cl)c2)[C@@H](CN2CCC[C@H]2CO)C1 [Example 1ii, hydrochloride]', 'cloned human kappa receptor (Homo sapiens, UniProt P41145)', 21.5),
  ('COC(=O)N1CCN(C(=O)Cc2ccccc2N(S(C)(=O)=O)S(C)(=O)=O)C(CN2CCCC2)C1 (racemic) [Example 1d, hydrochloride]', 'cloned human kappa receptor (Homo sapiens, UniProt P41145)', 7.6),
  ('COC(=O)N1CCN(C(=O)Cc2ccccc2[N+](=O)[O-])C(CN2CCCC2)C1 (racemic) [(R,S-9d), hydrochloride]', 'cloned human kappa receptor (Homo sapiens, UniProt P41145)', 37),
  ('C=CCN1CCN(C(=O)Cc2ccc(Cl)c(Cl)c2)[C@H](CN2CCCC2)C1 [Example 1ff, hydrochloride]', 'cloned human kappa receptor (Homo sapiens, UniProt P41145)', 0.58),
  ('COC(=O)N1CCN(C(=O)Cc2ccc(C(F)(F)F)cc2N(S(C)(=O)=O)S(C)(=O)=O)C(CN2CCCC2)C1 (racemic) [Example 1b, dihydrochloride]', 'cloned human kappa receptor (Homo sapiens, UniProt P41145)', 7),
  ('CS(=O)(=O)N1CCN(C(=O)Cc2ccc(C(F)(F)F)cc2)C(CN2CC[C@H](OC(=O)Cc3ccc(C(F)(F)F)cc3)C2)C1 (stereo partly drawn) [Example 1mm, hydrochloride]', 'cloned human kappa receptor (Homo sapiens, UniProt P41145)', 287),
  ('COC(=O)N1CCN(C(=O)Cc2ccc(C(F)(F)F)cc2N)C(CN2CCC[C@H]2CO)C1 (mixture of isomers) [Example 1p, hydrochloride]', 'cloned human kappa receptor (Homo sapiens, UniProt P41145)', 11),
  ('COC(=O)N1CCN(C(=O)Cc2ccc(Cl)c(Cl)c2)C(CN2CC[C@H](OC(=O)Cc3ccc(Cl)c(Cl)c3)C2)C1 (mixture of isomers) [Example 1q, hydrochloride]', 'cloned human kappa receptor (Homo sapiens, UniProt P41145)', 5.2);
